The origin of these recorded values is paper PMC6804243.

Test: Tolerance / cytotoxicity of compounds in U2OS cells
Assay type: cell-based
Settings: human, u2os cells, 8 h assay, read-out: concentration above which cytotoxic
measured-attribute: MCC at 8 h

Query (compound): NCCN1C(=O)CC[C@H]2CN(Cc3cccc(-c4ccco4)c3)CC[C@H]21 ; field requested: MCC at 8 h
> 300 µM

* * *

Biological target: UBE2T/FANCLRING (ubiquitylation of GST-FANCLRING) (Homo sapiens)
Sequence (Q9NW38 275-375 limits assumed): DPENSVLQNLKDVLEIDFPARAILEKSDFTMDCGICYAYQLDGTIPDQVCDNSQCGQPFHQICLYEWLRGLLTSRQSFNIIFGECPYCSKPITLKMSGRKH
Experiment: biochemical
Settings: ligand efficiency = 1.4(–logIC50)/HAC
A collection of molecules and their measured LE
# answer = number (no unit)

Item Cc1nnc(N(C)CC2CCN(CC(C)O)CC2)c(C#N)c1C (stereo not shown) has what recorded LE?
0.26

// LE lookup, key: Cc1cc(C(=O)O)cc(S(=O)(=O)Nc2ccccc2-n2cccn2)c1C
0.22

Name the reported LE value associated with the molecule NCCN1C(=O)CC[C@H]2CN(Cc3cccc(-c4ccco4)c3)CC[C@H]21
0.23

LE for Cc1nc2ccccc2n1CCNS(=O)(=O)c1ccc2c(c1)CC(=O)N2 ?
0.24

Reported LE for O=C(c1ccc2n[nH]nc2c1)N1CCC(COc2ccccc2)CC1 : what is it?
0.26

Would you mind telling me what LE value was observed for CCN1CCN(c2cc(C)nc3nc(CN4CCCCC4C)nn23)CC1 (stereo not shown) ?
0.26

Item under review: NC(=O)[C@@H]1CCCN1C(=O)c1cc(-n2cccc2)ccc1Cl . Reported LE?
0.32

LE lookup needed for Cn1ncc(C#N)c1NC(=O)Cc1coc2cc3c(cc12)CCC3 , thanks.
0.24

Sample COc1ccc(CNC(=O)c2ccc(-n3nccc3C)cc2)cc1C(=O)O — what was its LE?
0.22

Value lookup for LE; key = O=C(CCc1ccco1)NS(=O)(=O)c1cccc2ncccc12
0.35
